This collection of values is drawn from the supplement of paper PMC12645437.

- Experimental system: T1, CRBN, Q96SW2;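 also: pooled lentiviral library of zinc finger degron-EGFP fusions in mCherry-positive Jurkat cells, FACS-sorted after compound exposure, with degron abundance counted by next-generation sequencing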
- T1 chain: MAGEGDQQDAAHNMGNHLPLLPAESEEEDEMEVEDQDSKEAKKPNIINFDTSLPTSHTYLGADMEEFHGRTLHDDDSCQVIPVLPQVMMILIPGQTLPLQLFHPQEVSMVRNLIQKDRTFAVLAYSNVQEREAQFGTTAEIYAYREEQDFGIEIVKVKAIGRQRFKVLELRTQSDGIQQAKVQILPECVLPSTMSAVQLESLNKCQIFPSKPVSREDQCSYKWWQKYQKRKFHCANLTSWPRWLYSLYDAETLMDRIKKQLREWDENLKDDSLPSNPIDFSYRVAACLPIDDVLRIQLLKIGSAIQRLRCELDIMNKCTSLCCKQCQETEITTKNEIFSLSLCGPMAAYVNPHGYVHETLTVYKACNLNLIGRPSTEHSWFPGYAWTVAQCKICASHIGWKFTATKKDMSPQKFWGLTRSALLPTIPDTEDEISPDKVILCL
- Protocol details: log2 fold change of degron read counts, EGFP-low vs EGFP+ sorted cells (limma voom), compound-induced degradation; higher = more compound-induced degradation of the degron-EGFP fusion; degrons are variants of IKZF1/3 zinc finger 2; compound dose not given here
- Run conditions: Jurkat; 18 h; compound: thalidomide
In all, about 8,300 sequences were measured (“log2 fold change of degron read counts, EGFP-low vs EGFP+ sorted cells (limma voom), compound-induced degradation”: median about -1.1, highest 2% from about 3.2 on). The sample holds the highest values, similar sequences and a random draw of the others, so the mix is not that of the screen.
Assign True whenever log2 fold change of degron read counts does not fall below 2; assign False whenever it does.

See these solved cases before continuing.
{"Chain": "FKCNICGAPFTQKGNLLRHIKL [46F_47K_49N_50I_52G_53A_54P_55F_67L_, Q9UKT9]", "Assigned class": "False"}
{"Chain": "FFCPICGAQFTQKGNLLRHIKL [46F_47F_49P_50I_52G_53A_54Q_55F_67L_, Q9UKT9]", "Assigned class": "False"}
{"Chain": "FFCNICGAPFTQKGNLLRHIKL [46F_47F_49N_50I_52G_53A_54P_55F_67L_, Q9UKT9]", "Assigned class": "False"}
{"Chain": "FICPICGAQFTQKGNLLRHIKL [46F_47I_49P_50I_52G_53A_54Q_55F_67L_, Q9UKT9]", "Assigned class": "True"}
{"Chain": "FSCNICGAPFTQKGNLLRHIKL [46F_47S_49N_50I_52G_53A_54P_55F_67L_, Q9UKT9]", "Assigned class": "False"}

Query string: Evaluate FRCPICGAQFTQKGNLLRHIKL [46F_47R_49P_50I_52G_53A_54Q_55F_67L_, Q9UKT9] : log2 fold change of degron read counts at minimum 2?
Result string: False

Query string: Entry FVCPICGAQFTQKGNLLRHIKL [46F_47V_49P_50I_52G_53A_54Q_55F_67L_, Q9UKT9] : is its log2 fold change of degron read counts no less than 2?
Result string: True

Query string: API: above_or_equal(metric=log2 fold change of degron read counts, cutoff=2) for item FACPICGAQFTQKGNLLRHIKL [46F_47A_49P_50I_52G_53A_54Q_55F_67L_, Q9UKT9]
Result string: False

Query string: Is log2 fold change of degron read counts at least 2? Consider FHCNICGAPFTQKGNLLRHIKL [46F_47H_49N_50I_52G_53A_54P_55F_67L_, Q9UKT9]
Result string: False

Query string: Determine whether measured log2 fold change of degron read counts meets or exceeds 2 for FECPICGAQFTQKGNLLRHIKL [46F_47E_49P_50I_52G_53A_54Q_55F_67L_, Q9UKT9]
Result string: True

Query string: Please indicate if the recorded log2 fold change of degron read counts for FSCNQCGRMFTQKGNLLRHIKL [46F_47S_49N_50Q_52G_53R_54M_55F_67L_, Q9UKT9] meets or exceeds 2.
Result string: False

Query string: Quick check, log2 fold change of degron read counts >= 2? FMCNICGAPFTQKGNLLRHIKL [46F_47M_49N_50I_52G_53A_54P_55F_67L_, Q9UKT9]
Result string: True

Query string: Is log2 fold change of degron read counts for FDCNICGAPFTQKGNLLRHIKL [46F_47D_49N_50I_52G_53A_54P_55F_67L_, Q9UKT9] at or above 2?
Result string: False

Query string: # check: log2 fold change of degron read counts of FQCNICGAPFTQKGNLLRHIKL [46F_47Q_49N_50I_52G_53A_54P_55F_67L_, Q9UKT9] is greater than or equal to 2
Result string: True

Query string: Can FSCPICGAQFTQKGNLLRHIKL [46F_47S_49P_50I_52G_53A_54Q_55F_67L_, Q9UKT9] be said to have log2 fold change of degron read counts at or above 2?
Result string: False
